The reported measurements were obtained from patent US20190092852A1.

Items are presented alongside their recorded pKd.
Biological target: T1, human IL-33 (R&D Systems, #3625-IL-010/CF) (human) (UniProt O95760)
T1 sequence (looked up): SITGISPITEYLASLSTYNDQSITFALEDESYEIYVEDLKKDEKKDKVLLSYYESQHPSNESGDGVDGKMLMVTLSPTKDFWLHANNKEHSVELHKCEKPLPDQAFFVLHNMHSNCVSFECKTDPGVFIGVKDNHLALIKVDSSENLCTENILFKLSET
Assay: SPR Biacore T200, 37 C
Formally, pKd is defined as -log10 of the concentration c, with c in mol/L.

Use these answered entries as a reference point.
binder: H4H9672P (antibody, from another filing, IgG4, V domains shown) VH: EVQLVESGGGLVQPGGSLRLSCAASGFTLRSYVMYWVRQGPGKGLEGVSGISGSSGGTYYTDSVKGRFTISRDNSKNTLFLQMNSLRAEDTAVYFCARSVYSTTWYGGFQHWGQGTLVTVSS VL: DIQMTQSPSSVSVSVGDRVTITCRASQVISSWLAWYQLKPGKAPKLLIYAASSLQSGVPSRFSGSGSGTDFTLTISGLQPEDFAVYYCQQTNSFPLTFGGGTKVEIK
pKd: 9.27
--
binder: H4H9662P (antibody, from another filing, IgG4, V domains shown) VH: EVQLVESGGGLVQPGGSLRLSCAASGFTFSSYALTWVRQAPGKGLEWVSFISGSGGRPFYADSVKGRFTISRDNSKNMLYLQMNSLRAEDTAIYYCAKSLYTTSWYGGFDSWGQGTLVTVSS VL: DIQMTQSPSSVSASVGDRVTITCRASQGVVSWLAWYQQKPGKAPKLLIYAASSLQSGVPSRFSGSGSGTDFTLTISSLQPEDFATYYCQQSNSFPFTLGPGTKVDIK
pKd: 9.62

**Q:** Given H4H9671P (antibody, from another filing, IgG4, V domains shown) VH: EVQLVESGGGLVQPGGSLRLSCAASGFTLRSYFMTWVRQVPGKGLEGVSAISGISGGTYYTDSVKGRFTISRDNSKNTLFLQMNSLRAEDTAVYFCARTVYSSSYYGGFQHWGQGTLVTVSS VL: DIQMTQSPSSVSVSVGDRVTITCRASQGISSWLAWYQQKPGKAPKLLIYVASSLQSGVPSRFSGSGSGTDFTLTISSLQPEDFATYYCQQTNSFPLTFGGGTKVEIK , state its recorded pKd.
**A:** 9.26
